Measured values drawn from ChEMBL document CHEMBL4616593 for this set.

Exercise: state measured log10(T1/2) for each of the compounds provided.
# System: DNA
# procedure_details: Stabilization of [32P]-labelled dsDNA (unknown origin) assessed as drug-DNA adduct formation by measuring adduct half life incubated for 12 hrs in presence of formaldehyde by phosphorimaging analysis
# Type: nucleic-acid assay
Heads up: the numbers are on a log10 scale; they represent T1/2 in h.

Problem: Fill in log10(T1/2) for record NCCCCCNc1ccc(NCCCCCN)c2c1C(=O)c1c(O)ccc(O)c1C2=O
Result: 1.72

Problem: Fill in log10(T1/2) for record NCCNCCNc1ccc(F)c2c1C(=O)c1c(O)ccc(O)c1C2=O
Result: 1.00

Problem: Fill in log10(T1/2) for record O=C1c2c(O)ccc(O)c2C(=O)c2c(NCCNCCO)ccc(NCCNCCO)c21
Result: -0.38

Problem: Fill in log10(T1/2) for record NCCNCCNc1ccc(NCCNCCN)c2c1C(=O)c1c(O)ccc(O)c1C2=O
Result: 1.10

Problem: Fill in log10(T1/2) for record NCCCCCNc1ccc(F)c2c1C(=O)c1c(O)ccc(O)c1C2=O
Result: 1.38

Problem: Fill in log10(T1/2) for record NCCNc1ccc(NCCN)c2c1C(=O)c1c(O)ccc(O)c1C2=O
Result: 0.36
